OD450 values for the binders below.
# TARGET UNDER TEST: T1, EGFR Fc (human, UniProt P00533 25-645)
# T1 construct: also called EGFR-hFc; recombinant human EGFR-Fc
# ASSAY PROTOCOL: blocking ELISA, EGFR-hFc + VHH at 200 nM on coated EGF-mFc
// return a plain number; no unit text

>  <BINDER>
pgEG-SX6 (VHH, not shown: small tags and cut ends) VHH: QVQLVESGGGTVQAGGSLRLSCVASGMREDIFDMGWYRQAPGLQRELVATITSGGSTDYADSVKGRFTISRDNTENTLNLQMNMLKPEDTAVYYCNALYFPPSGGRSSEFWGQGTLVTVSS

>  <OD450>
0.668

$$$$

Then there is this binder:
Identify measured OD450 associated with pgEG-SX3 (VHH, not shown: small tags and cut ends) VHH: QVQLVESGGGLVQAGGSLRLSCVVYGSIFASTTMGWYRQAPGKQRELVATVYQSGTSVYADSVKGRFTASRDNAKKTVYLQMNSLKPEDTAVYYCHPRATDYWGRGTQVTVSS
0.382
